Consider the following compounds; for each one, report its MIC.
Tested on: Staphylococcus epidermidis
Test: Antibacterial activity against Staphylococcus epidermidis ATCC 12228 after 18 hrs by serial dilution method
Type: functional
Conditions: ATCC 12228, 18 h
Answers are plain numbers, in µg/mL.

Past entries and their recorded results:
>>> df
                           molecular_string  reported_measurement
0      CCSCCSc1nnc(-c2ccccc2[N+](=O)[O-])s1                    32
1    CCSCCSc1nnc(-c2ccc([N+](=O)[O-])cc2)s1                    32
2  CCS(=O)(=O)CCSc1nnc(-c2ccccc2[N+](=O)[O-])s1                    32
3    CCSCCSc1nnc(-c2cccc([N+](=O)[O-])c2)s1                    32
4    CCSCCSc1nnc(-c2ncc([N+](=O)[O-])n2C)s1                    32
5  CCS(=O)(=O)CCSc1nnc(-c2ccc([N+](=O)[O-])s2)s1                    32
6     CCSCCSc1nnc(-c2ccc([N+](=O)[O-])s2)s1                    32
7  CCS(=O)(=O)CCSc1nnc(-c2ccc([N+](=O)[O-])cc2)s1                    32

I have 4 compounds here; please give me MIC for each one.
1. CCS(=O)(=O)CCSc1nnc(-c2cccc([N+](=O)[O-])c2)s1
2. CCSCCSc1nnc(-c2ccc([N+](=O)[O-])o2)s1
3. CCS(=O)(=O)CCSc1nnc(-c2ncc([N+](=O)[O-])n2C)s1
4. CCS(=O)(=O)CCSc1nnc(-c2ccc([N+](=O)[O-])o2)s1

Ans:
32
32
32
32

* * *

Tested on: Staphylococcus aureus
Assay: Antibacterial activity against Staphylococcus aureus ATCC 6538P after 18 hrs by serial dilution method
Assay type: functional
Could you please report measured MIC for the items listed next?

Here are 2 compounds together with their reported answers.
>>> print(df.to_string())
                           molecular_string        target_of_assay  endpoint_label  reported_measurement
0  CCS(=O)(=O)CCSc1nnc(-c2ccc([N+](=O)[O-])o2)s1  Staphylococcus aureus             MIC            > 32 µg/mL
1    CCSCCSc1nnc(-c2ccc([N+](=O)[O-])cc2)s1  Staphylococcus aureus             MIC            > 32 µg/mL

Give one value of MIC per listed compound.
1. CCS(=O)(=O)CCSc1nnc(-c2ccc([N+](=O)[O-])s2)s1
2. CCS(=O)(=O)CCSc1nnc(-c2cccc([N+](=O)[O-])c2)s1
3. CCS(=O)(=O)CCSc1nnc(-c2ccc([N+](=O)[O-])cc2)s1

Ans:
["> 32 µg/mL", "> 32 µg/mL", "> 32 µg/mL"]

Lab note: each compound below needs its MIC filled in.
1. CCSCCSc1nnc(-c2cccc([N+](=O)[O-])c2)s1
2. CCSCCSc1nnc(-c2ccc([N+](=O)[O-])s2)s1
3. CCSCCSc1nnc(-c2ccccc2[N+](=O)[O-])s1
4. CCS(=O)(=O)CCSc1nnc(-c2ncc([N+](=O)[O-])n2C)s1
5. CCSCCSc1nnc(-c2ncc([N+](=O)[O-])n2C)s1
6. CCS(=O)(=O)CCSc1nnc(-c2ccccc2[N+](=O)[O-])s1
7. CCSCCSc1nnc(-c2ccc([N+](=O)[O-])o2)s1

Ans:
["> 32 µg/mL", "> 32 µg/mL", "> 32 µg/mL", "> 32 µg/mL", "> 32 µg/mL", "> 32 µg/mL", "> 32 µg/mL"]
